molecular target: IFN-αWA (human, UniProt P05015 24-189); experiment: cell-based or functional assay
Below is a list of entries, each paired with its recorded IC50 (pM), ISRE assay value.
Output spec: scalar in pM, unitless text.

Would you please look over these solved cases?
binder | uom | IC50 (pM), ISRE assay
IFWM3405 (antibody, IgG1, V domains shown) VH: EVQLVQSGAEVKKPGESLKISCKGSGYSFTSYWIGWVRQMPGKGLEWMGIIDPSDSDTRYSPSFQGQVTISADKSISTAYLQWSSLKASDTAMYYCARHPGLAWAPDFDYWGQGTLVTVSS VL: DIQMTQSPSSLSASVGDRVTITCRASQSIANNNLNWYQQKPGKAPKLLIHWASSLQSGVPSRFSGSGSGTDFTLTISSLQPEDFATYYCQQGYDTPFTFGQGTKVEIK | pM | 216
IFWM3314 (antibody, IgG1, V domains shown) VH: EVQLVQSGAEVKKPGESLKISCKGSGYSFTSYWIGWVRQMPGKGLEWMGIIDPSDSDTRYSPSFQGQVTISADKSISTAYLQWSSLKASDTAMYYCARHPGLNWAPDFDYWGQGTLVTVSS VL: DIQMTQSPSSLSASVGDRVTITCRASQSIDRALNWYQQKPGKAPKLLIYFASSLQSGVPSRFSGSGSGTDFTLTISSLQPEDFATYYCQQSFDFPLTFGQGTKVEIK | pM | 188
IFWM3320 (antibody, IgG1, V domains shown) VH: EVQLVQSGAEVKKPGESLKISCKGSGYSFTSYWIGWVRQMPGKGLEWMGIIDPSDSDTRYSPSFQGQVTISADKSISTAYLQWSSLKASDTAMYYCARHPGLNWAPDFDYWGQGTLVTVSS VL: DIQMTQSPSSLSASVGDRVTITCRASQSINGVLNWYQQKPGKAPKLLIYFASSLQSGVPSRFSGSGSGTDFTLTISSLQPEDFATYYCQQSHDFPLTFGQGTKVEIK | pM | 633
IFWM3308 (antibody, IgG1, V domains shown) VH: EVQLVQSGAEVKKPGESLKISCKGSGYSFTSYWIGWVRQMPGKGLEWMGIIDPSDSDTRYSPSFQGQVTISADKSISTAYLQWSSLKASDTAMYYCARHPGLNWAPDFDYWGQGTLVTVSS VL: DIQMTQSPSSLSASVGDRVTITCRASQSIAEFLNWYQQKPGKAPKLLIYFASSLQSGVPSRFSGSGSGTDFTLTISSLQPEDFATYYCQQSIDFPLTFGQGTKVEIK | pM | 894
IFWM3310 (antibody, IgG1, V domains shown) VH: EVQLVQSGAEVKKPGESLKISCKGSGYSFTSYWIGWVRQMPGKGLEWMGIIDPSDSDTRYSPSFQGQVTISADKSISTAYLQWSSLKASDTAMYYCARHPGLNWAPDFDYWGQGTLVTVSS VL: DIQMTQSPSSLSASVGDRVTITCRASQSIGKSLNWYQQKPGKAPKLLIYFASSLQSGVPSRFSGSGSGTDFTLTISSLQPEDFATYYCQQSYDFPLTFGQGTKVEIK | pM | 473

Switching to the query record.
Problem: IC50 (pM), ISRE assay for IFWM3322 (antibody, IgG1, V domains shown) VH: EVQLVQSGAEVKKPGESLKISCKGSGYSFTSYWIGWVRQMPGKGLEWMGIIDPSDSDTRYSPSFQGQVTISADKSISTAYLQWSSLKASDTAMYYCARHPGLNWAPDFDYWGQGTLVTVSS VL: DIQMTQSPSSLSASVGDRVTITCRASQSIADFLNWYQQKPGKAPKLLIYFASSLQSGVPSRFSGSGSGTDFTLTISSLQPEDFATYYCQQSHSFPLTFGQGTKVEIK ?
Result: 382
